# pIC50 per entry
biological target: BRD4 BD1 (Homo sapiens); construct: Protein BRD4 BD1 used in the assay was purchased from Active Motif (cat. 31380); assay: HTRF in vitro enzyme activity assay, inhibition of BRD4 BD1 binding to acetylated H4 peptide; conditions: IC50 values of the compounds against BRD4 BD1 binding; class symbols A/B/C
pIC50: −log10 of the molar value.

{"COMPOUND": "CC1Oc2cc(N3C(=O)c4ccccc4C3c3cccnc3)cc(F)c2N(C)C1=O (single isomer, unassigned)", "pIC50": "7.00 to 8.00"}
{"COMPOUND": "[2H]C([2H])([2H])N1C(=O)C(C)N(C2CC2)c2nc(N3C(=O)c4ccccc4C3c3cccnc3)ccc21 (stereo not drawn)", "pIC50": "≥ 8.00"}
{"COMPOUND": "C[C@H]1Oc2cc(N3C(=O)c4ccccc4C3c3cccnc3)ncc2N(C)C1=O (single isomer, unassigned) [Example A123-P2]", "pIC50": "6.00 to 7.00"}

Form: Entry = C[C@H]1Oc2nc(N3C(=O)c4cc(F)ccc4C3c3cccnc3)c(F)cc2N(C)C1=O (stereo partly drawn) | System = BRD4 BD1 (Homo sapiens) | pIC50 = ____
6.00 to 7.00

Observed pIC50 on BRD4 BD1 (Homo sapiens) for C[C@H]1Oc2nc(N3C(=O)c4c(cccc4[S+](C)[O-])C3c3cccnc3)ccc2N(C)C1=O (single isomer, unassigned) [Example A127-P1] , please.
≥ 8.00

Fill in the recorded pIC50 for this compound, with BRD4 BD1 (Homo sapiens) as test system: C[C@H]1Oc2cc(N3C(=O)c4ccccc4C3c3ccc(F)nc3)ncc2N(C)C1=O (single isomer, unassigned) [Example A125-P1]
6.00 to 7.00
